biological target: GST-KIAA1634 PDZ domain 1 (Homo sapiens (Human)), Q5TCQ9; test: G assay titration, PDZ 5 ug/ml
Sequence (Q5TCQ9 401-502): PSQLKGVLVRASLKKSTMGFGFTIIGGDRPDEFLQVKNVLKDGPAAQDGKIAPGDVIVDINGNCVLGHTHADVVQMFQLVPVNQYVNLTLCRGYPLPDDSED
measurement type: Kd (nM)
Numbers only, in nM.

Prompt line: What Kd value was documented for this binder, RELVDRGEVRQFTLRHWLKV (modifications not checked) [Dopamine transporter] ?
Response line: 900
